These entries and their values trace back to PubChem BioAssay (NCI).

- System: MCF7 breast
- assay-overview: NCI tumour cell line growth inhibition, 48 h
quantity-measured: TGI (µM)
Write the value in µM as a bare number.

# input MCF7 breast / TGI / CCN(CC)CCC(=O)c1ccc(Oc2ccc(F)cc2)cc1 : value?
# output 38.7

# input Item: COc1ccc2c(c1)-c1[nH]c3ccccc3c1CC2
# output 29.7

# input Item: O=C(CC(=O)c1ccccc1)c1ccccc1
# output 82.3

# input Item: c1ccc2nc(OCCN3CC3)ccc2c1
# output 11.4

# input Item: O=C1OC(=O)C2C1C(c1ccccc1[N+](=O)[O-])C=C(c1ccco1)N2c1ccncc1 (stereo not given)
# output 6.73

# input Item: NCCCC[C@H](N)C(=O)Nc1ccc(-c2nc3ccccc3s2)cc1Cl
# output 9.01
